The measured values listed here are drawn from paper PMC8315011.

Target Or System: ABCG2 (Homo sapiens, UniProt Q9UNQ0)
Sequence (Q9UNQ0 whole entry): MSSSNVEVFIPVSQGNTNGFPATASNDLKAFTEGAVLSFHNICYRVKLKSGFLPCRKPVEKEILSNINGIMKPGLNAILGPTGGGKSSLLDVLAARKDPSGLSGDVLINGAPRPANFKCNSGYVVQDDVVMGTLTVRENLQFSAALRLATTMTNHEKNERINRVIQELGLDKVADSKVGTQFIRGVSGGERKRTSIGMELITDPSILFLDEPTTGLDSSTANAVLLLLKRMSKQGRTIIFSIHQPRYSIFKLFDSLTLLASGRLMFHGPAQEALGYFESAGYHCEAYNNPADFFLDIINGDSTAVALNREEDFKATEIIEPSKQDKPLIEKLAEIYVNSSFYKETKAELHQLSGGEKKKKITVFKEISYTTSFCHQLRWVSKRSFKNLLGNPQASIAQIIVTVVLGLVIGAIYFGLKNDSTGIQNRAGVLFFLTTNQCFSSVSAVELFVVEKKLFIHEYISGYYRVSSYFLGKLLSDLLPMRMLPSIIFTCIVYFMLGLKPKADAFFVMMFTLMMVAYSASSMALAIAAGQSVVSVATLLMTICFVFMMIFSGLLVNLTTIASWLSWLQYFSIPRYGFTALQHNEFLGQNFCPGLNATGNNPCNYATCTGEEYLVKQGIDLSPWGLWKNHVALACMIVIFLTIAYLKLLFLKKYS
Assay Remarks: ABCG2 ATPase stimulation in membrane vesicles ([…] of basal); supported by inhibition of [3H]-mitoxantrone efflux in NCI-H460/MX20 cells at […]
Property Name: pEC50
Remember, pEC50 is on a log scale: it is -log10 of the molar concentration.

Inquiry: Using ABCG2 (Homo sapiens, UniProt Q9UNQ0) as the test system, report measured pEC50 of c1cn2cc(-c3ccc4cn[nH]c4c3)nc(Nc3ccc(N4CCOCC4)cc3)c2n1 [GS-9973] .
Reply text: 6.38
